Reported ETS1 binding intensity values are given for each entry in this list.
- Target Of Assay: ETS1 (UniProt P14921)
- Sequence: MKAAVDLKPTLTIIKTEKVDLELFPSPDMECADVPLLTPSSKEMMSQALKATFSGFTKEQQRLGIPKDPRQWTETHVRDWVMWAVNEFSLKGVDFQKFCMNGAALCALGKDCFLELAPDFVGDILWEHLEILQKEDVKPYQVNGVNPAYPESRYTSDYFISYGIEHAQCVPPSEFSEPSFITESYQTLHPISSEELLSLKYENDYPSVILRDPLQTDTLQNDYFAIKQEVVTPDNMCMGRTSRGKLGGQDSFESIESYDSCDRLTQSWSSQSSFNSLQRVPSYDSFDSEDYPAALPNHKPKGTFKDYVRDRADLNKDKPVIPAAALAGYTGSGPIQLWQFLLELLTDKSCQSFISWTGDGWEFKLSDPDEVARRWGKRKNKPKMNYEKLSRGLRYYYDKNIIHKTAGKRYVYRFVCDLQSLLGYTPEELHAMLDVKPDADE
- Procedure Details: ETS1 binding intensity (PBM fluorescence) in presence of RUNX1, normalised to ETS1-only experiment (arbitrary fluorescence units); higher = stronger binding
- Condition Details: ETS1 concentration 1 nM; RUNX1 concentration 25 nM
Reported Metric: ETS1 binding intensity

[[record]]
polymer_sequence = "ACTTTAATAGAGTCCGGATGCGGTTAGGCTGACAGA"
reported_metric = "ETS1 binding intensity"
measured = 30400

[[record]]
polymer_sequence = "TCCAGCCGGACGCGATGCCTGGAGGCTGCGGGCGCC"
reported_metric = "ETS1 binding intensity"
measured = 597

[[record]]
polymer_sequence = "TTTCTGACACTCTCAGGATGTGGGTTTTCGCACTGT"
reported_metric = "ETS1 binding intensity"
measured = 6000

[[record]]
polymer_sequence = "CCTCACAGGGACTTCCTTCCCCGCGGTTCAGGAATC"
reported_metric = "ETS1 binding intensity"
measured = 577

[[record]]
polymer_sequence = "TATCACGTTTCCTGCTGCTGCACCGCGACCTCAGCT"
reported_metric = "ETS1 binding intensity"
measured = 492

[[record]]
polymer_sequence = "CTTGTTATCCTTCCGGAGGCGGTAACTCATGAGAGA"
reported_metric = "ETS1 binding intensity"
measured = 352

[[record]]
polymer_sequence = "TGGAAGAGGGCAGGAAGTGTTGTGGTCACTCCCACC"
reported_metric = "ETS1 binding intensity"
measured = 28900

[[record]]
polymer_sequence = "ACCAACCGGAAGTGATCGTGTTGTGGCCGAAGGAGG"
reported_metric = "ETS1 binding intensity"
measured = 18100

[[record]]
polymer_sequence = "CTGCGCGGCCGGAAGTCGGCGGTTTCCCAGACGACG"
reported_metric = "ETS1 binding intensity"
measured = 30000

[[record]]
polymer_sequence = "GATTAAGAGGAAGTGTGTGTGATTATTACCGCTGGA"
reported_metric = "ETS1 binding intensity"
measured = 1540

[[record]]
polymer_sequence = "ACCCAGGGGACTTCCTGGCTCAGTGCCACAACCCAG"
reported_metric = "ETS1 binding intensity"
measured = 393

[[record]]
polymer_sequence = "TTCTTCCCCCTTCCGGTCGCTGAGTGGTTGAGGCCG"
reported_metric = "ETS1 binding intensity"
measured = 3610

[[record]]
polymer_sequence = "GTCCTCTTCCTGTCCCCCAGGTGGGCATGTGGTTTG"
reported_metric = "ETS1 binding intensity"
measured = 751

[[record]]
polymer_sequence = "TGAGGAGAGCGAGGAAGTGGTTTTCTCTTCGCACAG"
reported_metric = "ETS1 binding intensity"
measured = 1080

[[record]]
polymer_sequence = "AACCCACCGGATGGAAGCTGCCACTCAGCCGCAGGA"
reported_metric = "ETS1 binding intensity"
measured = 1700

[[record]]
polymer_sequence = "GTGTTGGGTGGCTTCCTGCGGCGTTTCCACTCTCGC"
reported_metric = "ETS1 binding intensity"
measured = 504

[[record]]
polymer_sequence = "TCTTTGAGAAGCGGATGTGGTAAACTTGCCTCTGTT"
reported_metric = "ETS1 binding intensity"
measured = 36600

[[record]]
polymer_sequence = "CGAAACGCGTTCCCCGGAAACCGCGCCCGGCTCCGA"
reported_metric = "ETS1 binding intensity"
measured = 3230

[[record]]
polymer_sequence = "GCTGTCCGTTTCCGAGATGTTAATGCGGGATCTTGC"
reported_metric = "ETS1 binding intensity"
measured = 402

[[record]]
polymer_sequence = "GACATCCAGGAAGTGGTGAGAAACCACGTGTGTGTT"
reported_metric = "ETS1 binding intensity"
measured = 4150

[[record]]
polymer_sequence = "GAAGTCACTCAGGGAGGAAACCACAGGGCCGGTCCG"
reported_metric = "ETS1 binding intensity"
measured = 1270

[[record]]
polymer_sequence = "CTCTGCCCGCTTCCGCTGGCGGTACCTCAGAGCCGC"
reported_metric = "ETS1 binding intensity"
measured = 920

[[record]]
polymer_sequence = "GGGGGCAGGAAGCAGTGCAGCTCCTTAACCCACTTC"
reported_metric = "ETS1 binding intensity"
measured = 892

[[record]]
polymer_sequence = "GACCTGGGCAGGAAGAGCGGCATGTGGGGCCCCCTG"
reported_metric = "ETS1 binding intensity"
measured = 795

[[record]]
polymer_sequence = "CGGCTGTTTTCCAGGATGTTGTGGTCATGGCGGTGT"
reported_metric = "ETS1 binding intensity"
measured = 6320


----------
Reported RUNX1 binding intensity values are given for each entry in this list.
- Target Of Assay: RUNX1 (UniProt Q01196)
- Sequence (Q01196 whole entry): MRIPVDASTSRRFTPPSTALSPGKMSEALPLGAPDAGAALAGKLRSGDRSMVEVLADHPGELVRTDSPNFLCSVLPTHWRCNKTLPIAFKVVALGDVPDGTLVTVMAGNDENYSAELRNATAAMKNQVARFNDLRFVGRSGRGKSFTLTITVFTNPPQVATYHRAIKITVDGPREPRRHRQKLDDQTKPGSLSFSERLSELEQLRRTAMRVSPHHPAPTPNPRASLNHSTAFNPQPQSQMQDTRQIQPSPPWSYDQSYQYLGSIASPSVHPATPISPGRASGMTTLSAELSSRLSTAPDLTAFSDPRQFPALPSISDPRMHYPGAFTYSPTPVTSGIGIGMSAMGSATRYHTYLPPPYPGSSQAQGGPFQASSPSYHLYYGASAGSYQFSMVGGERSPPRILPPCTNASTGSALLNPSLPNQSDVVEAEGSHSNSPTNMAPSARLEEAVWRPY
- Procedure Details: RUNX1 binding intensity (PBM fluorescence) in presence of ETS1, normalised to RUNX1-only experiment (arbitrary fluorescence units); higher = stronger binding
- Condition Details: RUNX1 concentration 2 nM; ETS1 concentration 25 nM
Reported Metric: RUNX1 binding intensity

[[record]]
polymer_sequence = "GGACGCTTCCGGTGGAAGGGAGCTGTTGCGGGGCTT"
reported_metric = "RUNX1 binding intensity"
measured = 1950

[[record]]
polymer_sequence = "CTGCCGCTGCCTTCCGCCCCCACACACGCACACCAC"
reported_metric = "RUNX1 binding intensity"
measured = 1640

[[record]]
polymer_sequence = "GAGACACTCTGCTTCCTGCGGTGGAAGATTCAGTAT"
reported_metric = "RUNX1 binding intensity"
measured = 1080

[[record]]
polymer_sequence = "CCGCTTCCGGGACGCGAATCGCTCTGCGGCTGCGTC"
reported_metric = "RUNX1 binding intensity"
measured = 2080

[[record]]
polymer_sequence = "GAGAAACAAACAGGATGTGGTCTCTGCCCTGGAGGA"
reported_metric = "RUNX1 binding intensity"
measured = 2420

[[record]]
polymer_sequence = "GAAAACTAAGCAGGATGTGGTCTCGGCTGGAGCCTG"
reported_metric = "RUNX1 binding intensity"
measured = 2020

[[record]]
polymer_sequence = "GACATGCTCCGGAAGCTTGAGGTTTTAACGTTAAGG"
reported_metric = "RUNX1 binding intensity"
measured = 1390

[[record]]
polymer_sequence = "TGTGCTGACTACAGGATGCTGTGGTTAGTCAGGTTG"
reported_metric = "RUNX1 binding intensity"
measured = 1720

[[record]]
polymer_sequence = "TTCAACAGGATGTGGGAACTTGACTCTCGCCGCAAA"
reported_metric = "RUNX1 binding intensity"
measured = 3720

[[record]]
polymer_sequence = "CTTAGTGTTTGAGGATGTGGGTTTTACAATCAGATC"
reported_metric = "RUNX1 binding intensity"
measured = 1310

[[record]]
polymer_sequence = "CAGTGTTCCGCGTCCGGGGGTTTGTGGGAGTTGCCT"
reported_metric = "RUNX1 binding intensity"
measured = 1120

[[record]]
polymer_sequence = "GGGAACTGGGGAAGGGGATGTGGTAACCAGAACCAC"
reported_metric = "RUNX1 binding intensity"
measured = 1050

[[record]]
polymer_sequence = "TGCAATTGGCAGACAGGAAACCGCGGCGTTTTCTGG"
reported_metric = "RUNX1 binding intensity"
measured = 1440

[[record]]
polymer_sequence = "AGGTGTACTTTCCGGGTGCAGACCGCGAATGGATCG"
reported_metric = "RUNX1 binding intensity"
measured = 1120

[[record]]
polymer_sequence = "AAGACACCAACGCTCGGAAACCGCCAGACACCAACG"
reported_metric = "RUNX1 binding intensity"
measured = 916

[[record]]
polymer_sequence = "GGCCGTTCTTCCGCCTGCAGGGTGGTCAGCGGAGGT"
reported_metric = "RUNX1 binding intensity"
measured = 1010

[[record]]
polymer_sequence = "GGGCCAGAGACGCCGGAAGTGACCGCGCGGTGCGCC"
reported_metric = "RUNX1 binding intensity"
measured = 1210

[[record]]
polymer_sequence = "ATCTTACCCCGGAAATGACAACAGTGCCGCAAACTG"
reported_metric = "RUNX1 binding intensity"
measured = 1620

[[record]]
polymer_sequence = "GGCTTCCGCCGCCACCACTGCCCCTCAACCGCCACG"
reported_metric = "RUNX1 binding intensity"
measured = 2040

[[record]]
polymer_sequence = "ATTTAGGAGGAAGTTTCCAGTACCACAACCTCACAG"
reported_metric = "RUNX1 binding intensity"
measured = 788

[[record]]
polymer_sequence = "CCAGCCCAGGAAACAAGGAACCCCAAAGCCACAGGA"
reported_metric = "RUNX1 binding intensity"
measured = 979

[[record]]
polymer_sequence = "CGAGGGAGCCGGAAAGATGGTGGTTACCAGATCTGC"
reported_metric = "RUNX1 binding intensity"
measured = 926

[[record]]
polymer_sequence = "GAAGCGATATTTCCTCCTGGGGTTGACCGCCCCGTG"
reported_metric = "RUNX1 binding intensity"
measured = 1090

[[record]]
polymer_sequence = "ATACCGGCGCATCCGGATTTTGAAGCCGCAGTGGAC"
reported_metric = "RUNX1 binding intensity"
measured = 1200

